Reported TGI is given for each of the following molecules.
System: BT-549 breast
Experiment: NCI tumour cell line growth inhibition, 48 h

// solved cases for TGI follow
Req: // query TGI value for entry COc1ccc2c(c1)N(Cc1ccc(Cl)cc1)CCC2N1CCCC1=O (stereo not given)
Resp: 19.6 µM

Req: // query TGI value for entry COC1=C[C@]2(CCC(=O)O2)[C@@H]2Cc3ccccc3[C@H](O)[C@@H]2C1=O
Resp: > 100 µM

Req: // query TGI value for entry COC(=O)CN(CC(=O)NCCCBr)C1CCCCC1N(CC(=O)OC)CC(=O)OC (stereo not given)
Resp: > 100 µM

Could you now consider this next molecule?
Req: // query TGI value for entry Cc1ccc(C)c2c1C(=O)N(c1ccc(F)cc1F)C2=O
Resp: > 100 µM

---

Test system: T-47D breast
Assay: NCI tumour cell line growth inhibition, 48 h
Reported TGI is given for each of the following compounds.

// solved cases for TGI follow
Req: // query TGI value for entry COC(=O)c1ccc2nc(-c3cc4ccccc4n3C)n(CCCCOc3cc4c(cc3OC)C(=O)N3CCC[C@H]3C=N4)c2c1
Resp: 3.51 µM

Req: // query TGI value for entry COc1cc(C2c3cc4c(cc3OC(NNc3ccccc3)C2C)OCO4)cc(OC)c1OC (stereo not given)
Resp: > 100 µM

Req: // query TGI value for entry CN1CCN(Cc2ccc(NC(=O)c3cncc(C#Cc4c(N)ncc5ccc(C#N)cc45)c3)cc2C(F)(F)F)CC1
Resp: 5.85 µM

Req: // query TGI value for entry Cc1cc2cc3cc(C)c(N)cc3nc2cc1N
Resp: 2.43 µM

Req: // query TGI value for entry CCc1ccccc1NC(=O)C(C#N)C1=C(Cl)C(=O)c2ccccc2C1=O (stereo not given)
Resp: 52.4 µM

Could you now consider this next compound?
Req: // query TGI value for entry Oc1cc(N2CC2)c(O)cc1N1CC1
Resp: 6.48 µM

---

Tested on: T-47D breast
Test: NCI tumour cell line growth inhibition, 48 h; in the data active means GI50 below about 0.43 µM; inactive means the rest
Choose the fitting class; nothing outside 1 for active, -1 for inactive is accepted.

Here's what some known entries look like.
Req: Tell me the assay call for CN1CCN(Cc2ccc(NC(=O)c3cncc(C#Cc4c(N)ncc5ccc(C#N)cc45)c3)cc2C(F)(F)F)CC1 please.
Resp: -1

Req: Tell me the assay call for CN1CC=C(c2cc(NC(=O)Nc3ccc(Oc4ccnc(NC(=O)C5CC5)c4)c(F)c3)cc(C(F)(F)F)c2)CC1 please.
Resp: -1

Req: Tell me the assay call for CCCCCCC1N=C(N)N=C(N)N1c1cccc(Cl)c1 (stereo not drawn) please.
Resp: -1

Continuing:
Req: Tell me the assay call for O=C([O][Hg][c]1ccccc1)c1ccccc1 please.
Resp: -1

Req: Tell me the assay call for OCc1ccc(-c2csc(-c3ccc(CO)o3)c2)o1 please.
Resp: -1

---

System: A549 NSCLC
Assay: NCI tumour cell line growth inhibition, 48 h
property measured: TGI

// solved cases for TGI follow
Req: // query TGI value for entry NC(=O)c1cccc2c(N[C@H](CN3CCC3)c3ccc(Cl)c(C(F)(F)F)c3)ncnc12
Resp: 12.4 µM

Req: // query TGI value for entry COC(=O)Cc1c([C@@]2(C)CCCC(C)(C)C2)ccc2c1C(=O)OC2
Resp: 32.4 µM

Req: // query TGI value for entry NC1N=Nc2ccccc21 (stereo unspecified)
Resp: > 100 µM

Continuing:
Req: // query TGI value for entry Nc1nc(N)c(CCCCc2ccccc2)c(C=O)n1
Resp: > 100 µM

Req: // query TGI value for entry OCC1OC2c3ccccc3COC2C1OCc1ccccc1 (stereo unspecified)
Resp: > 100 µM

Req: // query TGI value for entry COc1cccc(C=O)c1C(=O)c1cc(O)ccc1O
Resp: > 100 µM

Req: // query TGI value for entry O=C(NC(=Nc1ccccc1)SCSC(=Nc1ccccc1)NC(=O)c1ccco1)c1ccco1
Resp: > 100 µM

---

Reported TGI is given for each of the following compounds.
Tested on: NCI/ADR-RES ovarian
Assay: NCI tumour cell line growth inhibition, 48 h

Req: // query TGI value for entry COC(=O)CNC(=O)C(Cc1ccccc1)NC(=O)c1ccc(-c2ccc(Cl)cc2Cl)o1 (centres undefined)
Resp: > 100 µM

Req: // query TGI value for entry CCCCCCC1N=C(N)N=C(N)N1c1cccc(Cl)c1 (centres undefined)
Resp: > 100 µM

Continuing:
Req: // query TGI value for entry COc1cc(C2S/C(=C/c3ccccc3)C(=O)N2Cc2ccccc2)cc(OC)c1OC (centres undefined)
Resp: > 100 µM

Req: // query TGI value for entry CC(C)C(Nc1ncnc2nc[nH]c12)C(=O)O (centres undefined)
Resp: > 100 µM

Req: // query TGI value for entry CC(=O)C(=O)NC1/C=C(C)\C=C/C(O)C/C=C(C)\C=C/C(O)CC2OC(=O)C1(C)C(=O)C2C (centres undefined)
Resp: > 100 µM

Req: // query TGI value for entry N#Cc1c(NCc2ccccc2)nc(NCc2ccccc2)c(C#N)c1-c1ccc(Cl)cc1
Resp: > 100 µM

Req: // query TGI value for entry CNS(=O)(=O)OCC1OC(n2cnc3cncnc32)C(O)C1O (centres undefined)
Resp: > 100 µM

Req: // query TGI value for entry Cn1c(-c2ccc(-c3cc(-c4cccs4)c(-c4cccs4)n3C)cc2)cc(-c2cccs2)c1-c1cccs1
Resp: > 100 µM

Req: // query TGI value for entry CCOP(=O)(CCCC(O)CNc1nc(N)nc(Cl)c1N=Nc1ccc(Cl)cc1)OCC (centres undefined)
Resp: 31 µM

Req: // query TGI value for entry CCCCCCSc1nc(N)nc2nc[nH]c12
Resp: > 100 µM

Req: // query TGI value for entry Cc1ccc(/C=C/C(=O)Oc2ccc(/C=C3\CCC/C(=C\c4ccc(OC(=O)/C=C/c5ccc(C)cc5)cc4)C3=O)cc2)cc1
Resp: > 100 µM

Req: // query TGI value for entry C[C@H](c1ccc(F)cc1CCCC(=O)O)N(c1cc(F)ccc1F)S(=O)(=O)c1ccc(Cl)cc1
Resp: > 100 µM

Req: // query TGI value for entry Cc1ccc(C)c2c1C(=O)N(c1ccc(F)cc1F)C2=O
Resp: > 100 µM

---

System: EKVX NSCLC
Experiment: NCI tumour cell line growth inhibition, 48 h
property measured: TGI

// solved cases for TGI follow
Req: // query TGI value for entry COc1cc2c3c(n(CCCN4CCNCC4)c(=O)c2cc1OC)-c1cc2c(cc1C3=O)OCO2
Resp: 17.2 µM

Req: // query TGI value for entry C/C(CCC(=O)O)=N/Nc1ccc([N+](=O)[O-])cc1
Resp: > 100 µM

Req: // query TGI value for entry Cc1ccc(C)c2c1C(=O)N(c1ccc(F)cc1F)C2=O
Resp: > 100 µM

Req: // query TGI value for entry CCn1c2nc(=O)n(CCCCCCCCSC(c3ccccc3)(c3ccccc3)c3ccccc3)c(=O)c-2nc2ccccc21
Resp: > 100 µM

Req: // query TGI value for entry [O-]/N=[N+](/[O-])C1CCCCC1=[N+]1CCOCC1 (stereo unspecified)
Resp: > 100 µM

Continuing:
Req: // query TGI value for entry O=C1c2ccccc2C(=O)N1n1c(Cc2ccc(Cl)cc2)n[nH]c1=O
Resp: > 100 µM

Req: // query TGI value for entry CC1CCCC(C(=O)CC2CC(=O)NC(=O)C2)C1=O (stereo unspecified)
Resp: > 100 µM

Req: // query TGI value for entry Fc1ccc(-c2sc(-c3ccsc3)cc2Cc2ccsc2)cc1
Resp: > 10 µM

Req: // query TGI value for entry O=C1/C(=C/c2ccc(Cl)cc2)Oc2cc(O)ccc21
Resp: 94.3 µM

Req: // query TGI value for entry CCOC(=O)c1c(NS(=O)(=O)c2ccc(C)cc2)sc2c1CCCC2
Resp: 98.7 µM

Req: // query TGI value for entry COC(=O)c1c(O)ccc2c1c1cc3ccccc3cc1n2Cc1cc(OC)cc(OC)c1
Resp: > 100 µM

---

Tested on: OVCAR-3 ovarian
Experiment: NCI tumour cell line growth inhibition, 48 h; in the data active means GI50 below about 0.43 µM; inactive means the rest
Choose the fitting class; nothing outside active, inactive is accepted.

Here's what some known entries look like.
Req: Tell me the assay call for O=C(/C=C/C12c3ccccc3C(c3ccccc31)C1C(=O)N(c3ccc(Cl)cc3)C(=O)C12)c1ccccn1 (stereo not given) please.
Resp: active

Req: Tell me the assay call for O=C(CN1CCN(Cc2ccccc2Cl)CC1)NC1CC(=O)c2c(Br)sc(Br)c21 (stereo not given) please.
Resp: inactive

Req: Tell me the assay call for COC(=O)c1ccc2nc(-c3cc4ccccc4n3C)n(CCCCOc3cc4c(cc3OC)C(=O)N3CCC[C@H]3C=N4)c2c1 please.
Resp: active

Continuing:
Req: Tell me the assay call for Cn1cc(C2=C(c3c4n(c5ccccc35)CCNC4)C(=O)NC2=O)c2ccccc21 please.
Resp: inactive

Req: Tell me the assay call for CCC(C)(C)c1cc(O)c(C(C)(C)CC)cc1O please.
Resp: inactive

Values from PubChem BioAssay (NCI)
